- tested-system: acetylcholinesterase (Mus musculus)
- Construct: A mouse brain homogenate was used as an acetylcholinesterase source; from tissue; host or cells: mouse brain homogenate
- assay-name: biochemical
- Type: biochemical
- measurement-setup: in vitro, mouse brain homogenate; Table 10; read-out: Inhibitory activity on AChE IC50
Structures can show the parent of a compound that is named as a salt.
Please go through the items and note down their IC50.
Kindly write the number and append the unit.

Name the recorded IC50 for COc1cc2c(cc1OC)C(=O)C(CC1CCNCC1)C2 (stereo not drawn) [Example 179, hydrochloride] .
5400 nM

// query: COc1cc2c(cc1OC)C(=O)C(CC1CCN(Cc3ccc(C)cc3)CC1)C2 (stereo not drawn) [Example 229]
40 nM

Param item: COc1cc2c(c(OC)c1OC)C(=O)C(CC1CCN(Cc3ccccc3)CC1)C2 (stereo not drawn) [Example 192]
13 nM

###

- tested-system: acetylcholinesterase (Mus musculus)
- Construct: A mouse brain homogenate was used as an acetylcholinesterase source; from tissue; host or cells: mouse brain homogenate
- assay-name: biochemical
- Assay type: biochemical
Structures can show the parent of a compound that is named as a salt.
property: pIC50
Remember the convention: pIC50 equals -log10 of concentration in molar.

Record request: pIC50 value, item COc1cc2c(cc1OC)C(=O)C(CC1CCN(Cc3cccc(O)c3)CC1)C2 (centres unmarked)
7.34

Next record, please: COc1ccc2c(c1OC)CC(=CC1CCN(Cc3ccccc3)CC1)C2=O
7.21

Further, for COc1cc2c(cc1OC)C(=O)C(=CCCC1CCN(Cc3ccccc3)CC1)C2 [Example 186, hydrochloride] ?
8.82

Next entry: Cc1cccc2c1CC(CC1CCN(Cc3ccccc3)CC1)C2=O (centres unmarked)
8.15

Next: O=C(NCCC1CCN(Cc2ccccc2)CC1)c1ccoc1 [Example 24, hydrochloride]
5.96

Same thing, different compound: COc1ccc2c(c1)CCCC(=O)N2CCC1CCN(Cc2ccccc2)CC1
8.12

One more compound: COc1cc2c(cc1OC)C(=O)C(CC1CCN(Cc3cccnc3)CC1)C2 (centres unmarked)
7.14

// query: COc1cc2c(cc1OC)C(=O)C(=CCCCC1CCN(Cc3ccccc3)CC1)C2
7.96

Again, but for Cc1ccc2c(c1)C(=O)C(=CC1CCN(Cc3ccccc3)CC1)C2
6.30

Now consider COc1cc2c(cc1O)C(=O)C(=CC1CCN(Cc3ccccc3)CC1)C2 .
8.08

Also COc1cc2c(cc1OCc1ccccc1)CC(=CC1CCN(Cc3ccccc3)CC1)C2=O , if possible.
8.38

Again, but for COc1cc2c(cc1OC(C)C)CC(=CC1CCN(Cc3ccccc3)CC1)C2=O
7.48

Now the same for O=C(NCCC1CCN(Cc2ccc(O)cc2)CC1)c1cnc2ccccc2n1 [Example 14, hydrochloride]
7.42

Here is the next compound: Cc1ccc2c(c1)C(=O)C(CC1CCN(Cc3ccccc3)CC1)C2 (centres unmarked)
7.16

Then COc1cc2c(cc1OC)C(=NNc1ccc([N+](=O)[O-])cc1[N+](=O)[O-])C(CC1CCN(Cc3ccccc3)CC1)C2 (centres unmarked) ?
5.36

Do the same for CCOc1cc2c(cc1OCC)C(=O)C(=CC1CCN(Cc3ccccc3)CC1)C2 please
7.77

Let us now turn to COc1ccc(CN2CCC(CC3Cc4cc(OC)c(OC)cc4C3=O)CC2)cc1OC (centres unmarked)
5.40

Thanks! And COc1cc2c(cc1OC)C(=O)C(=CCCCCC1CCN(Cc3ccccc3)CC1)C2 ?
8.27

Can you check COc1cc2c(cc1O)C(=O)C(CC1CCNCC1)C2 (centres unmarked) next?
5.30

CCOC(=O)c1nccnc1C(=O)NCCC1CCN(Cc2ccccc2)CC1 , same question.
7.70

Could you do the same for CC(C)OC(=O)c1nccnc1C(=O)NCCC1CCN(Cc2ccccc2)CC1 , please?
7.59

Cool, now COc1cc2c(cc1OC)C(=O)C(CC1CCN(Cc3ccc(O)cc3)CC1)C2 (centres unmarked)
8.74

# iterate: COc1cc2c(cc1OC)C(=O)N(CCC1CCN(Cc3ccccc3)CC1)C2 [Example 6, hydrochloride]
7.77

Could you do the same for COc1cc2c(cc1OC)C(=O)C(CC1CC[N+]([O-])(Cc3ccccc3)CC1)C2 (centres unmarked) , please?
8.31

Continue with COc1cc2c(cc1OC)C(=O)C(CC1CCN(Cc3cccc(OCc4ccccc4)c3)CC1)C2 (centres unmarked)
5.59

Can you check O=C(NCC1CCN(Cc2ccccc2)C1)c1ccccc1 (centres unmarked) [Example 21, hydrochloride] next?
4.30

# repeat for COc1cc2c(cc1OC)C(=O)C(=CC=CC1CCN(Cc3ccccc3)CC1)C2
8.52

Also check COc1cc2c(cc1OC)C(=O)C(CC1CCN(Cc3cccc4ccccc34)CC1)C2 (centres unmarked)
6.66

Next compound up: COc1cccc2c1CCCC(=O)N2CCC1CCN(Cc2ccccc2)CC1
8.80

Now give it for COc1cc2c(cc1O)C(=O)C(CC1CCN(Cc3ccccc3)CC1)C2 (centres unmarked) too.
8.89

Entry CCOC(=O)N1CCC(CC2Cc3cc(OC)c(OC)cc3C2=O)CC1 (centres unmarked) please
6.10

And what about the compound COc1cc2c(cc1OC(C)C)CC(CC1CCN(Cc3ccccc3)CC1)C2=O (centres unmarked) ?
8.05

Same thing, different compound: COc1ccc2c(c1OC)C(=O)C(=CC1CCN(Cc3ccccc3)CC1)C2
6.37

Input O=C(c1cnccn1)N(CCC1CCN(Cc2ccccc2)CC1)c1ccccc1
7.07

###

- tested-system: acetylcholinesterase (Mus musculus)
- Construct: A mouse brain homogenate was used as an acetylcholinesterase source; from tissue; host or cells: mouse brain homogenate
- assay-name: biochemical
- Type: biochemical
Where a name gives a salt, the structure may show the parent alone.
property: pIC50
pIC50 here: minus log base 10 of the concentration, concentration in moles per litre.

Which pIC50 reading was recorded for the compound O=C(NCCC1CCN(Cc2ccco2)CC1)c1ccccc1 ?
5.55

Please do the same for CN1CC(=O)N(CCC2CCN(Cc3ccccc3)CC2)c2ccccc2C1=O as well.
6.55

Moving on to the next compound: COc1cccc2c1CC(=CC1CCN(Cc3ccccc3)CC1)C2=O
7.31

// repeat for O=C1C(=CC2CCN(Cc3ccccc3)CC2)CCc2ccccc21 and report
4.70

And the next one, COc1cc2c(cc1O)CC(CC1CCN(Cc3ccccc3)CC1)C2=O (stereo not shown) ?
6.42

Proceed to CCOc1cc2c(cc1OCC)C(=O)C(CC1CCN(Cc3ccccc3)CC1)C2 (stereo not shown)
8.27

Also COc1cc2c(cc1OC)CC(CC1CCN(Cc3ccccc3)CC1)=C2 [Example 185, hydrochloride] , if possible.
9.09

Field entry: O=C1c2ccccc2Oc2ccccc2N1CCC1CCN(Cc2ccccc2)CC1
8.40

Try this compound next: O=C1C(=CC2CCN(Cc3ccccc3)CC2)Cc2ccc(F)cc21
5.70

How about this compound: O=C(CCCC1CCN(Cc2ccccc2)CC1)c1ccncc1
6.44

Please answer likewise for CC(=CC1CCN(Cc2ccccc2)CC1)C(=O)c1ccccc1
4.96

Consider next the compound CN1CC(=O)N(CCC2CCN(Cc3ccccc3)CC2)c2ccccc2C1 [Example 9, dihydrochloride] in the same way.
7.29

Input CC(CC1CCN(Cc2ccccc2)CC1)C(=O)c1ccccc1 (stereo not shown)
5.92

Next record, please: CN(CCC1CCN(Cc2ccccc2)CC1)C(=O)c1ccco1
6.72

Would you mind doing COc1cccc(CN2CCC(CC3Cc4cc(OC)c(OC)cc4C3=O)CC2)c1 (stereo not shown) as well?
6.66

Follow-up entry: O=C1c2cc(F)ccc2CC1CC1CCN(Cc2ccccc2)CC1 (stereo not shown)
6.70

Next record, please: CN1c2ccccc2C(=O)N(CCC2CCN(Cc3ccccc3)CC2)c2ccccc21 [Example 12, hydrochloride]
7.40

Lookup O=C1C(=CC2CCN(Cc3ccccc3)CC2)CCCc2ccccc21
4.72

Here is the next compound: O=C(CCC1CCN(Cc2ccccc2)CC1)Nc1ccncc1
7.72

###

- tested-system: acetylcholinesterase (Mus musculus, UniProt P21836)
- Construct: A mouse brain homogenate was used as an acetylcholinesterase source; from tissue; host or cells: mouse brain homogenate
- Sequence (P21836 32-614): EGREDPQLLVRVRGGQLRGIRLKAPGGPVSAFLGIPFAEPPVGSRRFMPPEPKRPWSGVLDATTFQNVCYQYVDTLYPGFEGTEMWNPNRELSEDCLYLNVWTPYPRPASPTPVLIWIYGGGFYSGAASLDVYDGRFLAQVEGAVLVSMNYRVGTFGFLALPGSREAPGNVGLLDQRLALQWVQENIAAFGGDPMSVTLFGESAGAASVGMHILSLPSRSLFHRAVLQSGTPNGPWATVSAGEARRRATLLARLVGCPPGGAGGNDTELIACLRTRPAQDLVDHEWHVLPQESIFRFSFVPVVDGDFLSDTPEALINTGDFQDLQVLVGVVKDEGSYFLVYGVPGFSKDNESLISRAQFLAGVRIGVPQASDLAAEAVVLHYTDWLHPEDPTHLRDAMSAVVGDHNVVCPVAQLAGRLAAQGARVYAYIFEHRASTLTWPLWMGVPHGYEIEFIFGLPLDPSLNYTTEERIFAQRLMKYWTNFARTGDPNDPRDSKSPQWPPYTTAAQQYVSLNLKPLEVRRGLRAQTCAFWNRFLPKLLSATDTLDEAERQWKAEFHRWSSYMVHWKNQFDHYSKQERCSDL
- assay-name: biochemical
- Type: biochemical
- measurement-setup: read-out: AChE inhibitory activity IC50
pIC50: −log10 of the molar value. Structures can show the parent of a compound that is named as a salt.
Rule: pIC50 under 7 gives Condition not met, otherwise Condition met.

Could you please find out whether CN(CCC1CCN(CC2CCCCC2)CC1)C(=O)c1ccccc1 [Example 27, hydrochloride] has pIC50 that meets 7 or exceeds it?
Condition not met

Also need O=C(c1ccc(F)cc1)N(CCC1CCN(Cc2ccccc2)CC1)c1ccccc1 , thanks.
Condition met

Now give it for O=C1Nc2ccccc2CN1CCC1CCN(Cc2ccccc2)CC1 too.
Condition met

Request: O=C(CCC1CCN(Cc2ccccc2)CC1)Nc1ccccc1 [Example 20, hydrochloride]
Condition not met

Now try O=C1c2ccccc2NCN1CCC1CCN(Cc2ccccc2)CC1 .
Condition not met

Try CC(=O)N(CCC1CCN(Cc2ccccc2)CC1)c1ccccc1 next.
Condition met

And what about the compound O=C1Cc2ccccc2CN1CCC1CCN(Cc2ccccc2)CC1 ?
Condition met
